System: CCRIS mutagenicity, Ames/micronucleus/aberration tests
test.description: CCRIS mutagenicity studies
recorded.conditions: Test System: AMES SALMONELLA TYPHIMURIUM; Strain/Indicator: TA98; Metabolic Activation: NONE; Method: STANDARD PLATE
Activity calls are given as the source filed them. How the calls were made is not given here.
// one of active, inactive, no free text

Check out these entries, answers already filled in.
Nc1snc2cc(Cl)ccc12: inactive
Cc1ccccc1NO: inactive
Nc1ccc([N+](=O)[O-])cc1[N+](=O)[O-]: active

stdin: Could you check what this test reported for Oc1ccc2ccc3[nH]c4ccc5ccccc5c4c3c2c1 ?
stdout: active

stdin: Status in this test for O=C(O)c1cc(=O)c2c(OCC(O)COc3cccc4oc(C(=O)O)cc(=O)c34)cccc2o1 ?
stdout: inactive

stdin: Given COC(=O)c1occ(-c2ccccc2)c1-c1ccccc1 , state the outcome it received in this test.
stdout: inactive

stdin: Answer briefly: the call reported for Cc1ccc(NCCO)cc1O in this assay.
stdout: inactive

Values were extracted from PubChem BioAssay AID1259407.
